# Tested on: MOLM14
# procedure text: cell viability relative to vehicle control; higher = less cytotoxic;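 further: after 48 h exposure read by CellTiter-Glo luminescence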
# stated conditions: 10 µM; SRSF2 genotype: SRSF2 P95H/wt
Counter-ions that a name gives are not always drawn.
measured attribute: cell viability (%)
Kindly provide the numeric value in % only, without the unit symbol.

Solved cases below.
compound	system tested	uom	cell viability
CNC(=O)c1cnn(-c2nc(N)c3ncn([C@@H]4O[C@H](CO)[C@@H](O)[C@H]4O)c3n2)c1	MOLM14	%	103
COc1cc(-c2oc3cc(O)cc(O)c3c(=O)c2O)ccc1O	MOLM14	%	71.8
CCOC(=O)c1ccc(C#Cc2ccc3c(c2)C(C)(C)CCS3)nc1	MOLM14	%	76.2

query: May I ask what cell viability has been recorded for COC(=O)[C@@H]1[C@H]2C[C@H]3c4[nH]c5ccccc5c4CCN3C[C@@H]2CC[C@@H]1O [Yohimbine hydrochloride (Antagonil)] ?
result: 95

###

# Test system: K562
# procedure text: cell viability relative to vehicle control; higher = less cytotoxic
# stated conditions: 10 µM; SRSF2 genotype: SRSF2 wt/wt
Counter-ions that a name gives are not always drawn.
Decide using cell viability alone. Strictly below 90%: Met. Equal to or above 90%: Not met.

Solved entries (count: 8):
compound	system tested	qualitative label
C#C[C@]1(O)CC[C@H]2[C@@H]3CCc4cc(OC)ccc4[C@H]3CC[C@@]21C	K562	Not met
CC(C)Oc1ccc2c(=O)c(-c3ccccc3)coc2c1	K562	Not met
Cc1nc(C(=O)NCC(=O)O)c(O)c2ccc(Oc3ccccc3)cc12	K562	Met
CC(N)C12CC3CC(CC(C3)C1)C2 (stereo not drawn)	K562	Not met
Cc1cc(S(=O)(=O)O)c2c(C)ccc(C(C)C)cc1-2 [Sodium gualenate]	K562	Not met
C[C@]1(COc2ccc(N3CCC(Oc4ccc(OC(F)(F)F)cc4)CC3)cc2)Cn2cc([N+](=O)[O-])nc2O1	K562	Not met
O=C(c1ccc(Nc2nccc(-c3cc4ccccc4s3)n2)cc1)N1CCC(N2CCCC2)CC1	K562	Met
CN(C)CCOC(c1ccccc1)c1ccccc1 [Diphenhydramine HCl (Benadryl)]	K562	Met

Moving on to the next compound.
query: Could you please tell me whether cell viability recorded for O=c1c2ccccc2oc2ccccc12 [Xanthone (Genicide)] is less than 90%?
result: Not met

###

The following compounds are listed with their measured cell viability values.
# Test system: MOLM14
# procedure text: cell viability relative to vehicle control; higher = less cytotoxic
# stated conditions: 10 µM; SRSF2 genotype: SRSF2 P95H/wt
Where a name gives a salt, the structure may show the parent alone.
Report as a plain number; the unit % is understood.

Here's what some known entries look like.
> print(dat)
                                   compound  system.tested  reported.measurement
1  CCOC(=O)[C@@H](N)Cc1ccc(-c2cc(O[C@H](c3ccc(Cl)cc3-n3ccc(C)n3)C(F)(F)F)nc(N)n2)cc1 [LX1606 hippurate]         MOLM14                  14.2
2  CCOCC(O)COc1ccc(NC(=O)CC[S+](C)C)cc1 (stereo not drawn) [Suplatast tosylate]         MOLM14                   105

query: Name the recorded cell viability for `O=C(Nc1ccccc1-c1cn2c(CN3CCNCC3)csc2n1)c1cnc2ccccc2n1` .
result: 0.15

query: Reported cell viability for Cc1cc(Nc2cc(N3CCN(C)CC3)nc(/C=C/c3ccccc3)n2)n[nH]1 [ENMD-2076 L-(+)-Tartaric acid] : what is it?
result: 2.93

###

# System: OCI-AML2
# procedure text: cell viability relative to vehicle control; higher = less cytotoxic
# stated conditions: 10 µM; SRSF2 genotype: wt/wt
# maps each entry to its cell viability
Please reply with the bare figure in % and do not write the unit itself.

molecule	cell viability, %
O=C(c1ccccc1)C(O)O [Phenylglyoxal hydrate]	100
Cc1cccc(-c2[nH]ncc2-c2ccc3ncccc3n2)n1	83.5
COCCc1ccc(OCC(O)CNC(C)C)cc1 (centres undefined) [Metroprolol succinate]	108

query: # lookup: cell viability of COC(=O)c1ccc2c(C(=Nc3ccc(N(C)C(=O)CN4CCN(C)CC4)cc3)c3ccccc3)c(O)[nH]c2c1 [Nintedanib (BIBF 1120)]
result: 5.1

query: May I ask what cell viability has been recorded for OC[C@H]1O[C@H](OC[C@H]2O[C@H](OC[C@H]3O[C@H](O[C@]4(CO)O[C@H](CO)[C@@H](O)[C@@H]4O)[C@H](O)[C@@H](O)[C@@H]3O)[C@H](O)[C@@H](O)[C@H]2O)[C@H](O)[C@@H](O)[C@H]1O [Stachyose] ?
result: 93.5

query: Field request: cell viability | item: `CCC(=O)Nc1cccc(Oc2nc(Nc3ccc(N4CCN(C)CC4)cc3OC)ncc2Cl)c1`
result: 59.2

query: Look at this molecule and give its reported cell viability. O=c1c(-c2ccc(O)cc2)coc2cc(O[C@@H]3O[C@H](CO)[C@@H](O)[C@H](O)[C@H]3O)cc(O)c12 [Genistin (Genistoside)]
result: 93.4

query: Which value of cell viability has been reported for CSc1ccc(C(=O)/C=C/c2cc(C)c(OC(C)(C)C(=O)O)c(C)c2)cc1 [Elafibranor] in the records?
result: 57

###

# Test system: OCI-AML2
# procedure text: cell viability relative to vehicle control; higher = less cytotoxic
# stated conditions: 10 µM; SRSF2 genotype: P95H/wt
Counter-ions that a name gives are not always drawn.
Measured cell viability accompanies every entry in the list below.
Respond numerically; units are % and should not be typed.

// below: answered molecules
> print(dat)
                                   molecule  reported.measurement
1  C[C@@H](O)[C@H]1C(=O)N2C(C(=O)O)=C(S[C@@H]3CN[C@H](C(=O)N(C)C)C3)[C@H](C)[C@H]12                   111
2                              NCCCCCC(=O)O                   113
3  CCCCNc1ncc(-c2ccc(CN3CCOCC3)cn2)c(NC2CCC(O)CC2)n1 (centres undefined)                  16.1

query: Which measured cell viability belongs to COc1ccc2c(c1O)-c1c(O)c(OC)cc3c1[C@H](C2)[N+](C)(C)CC3 [Magnoflorinechloride] , tested on OCI-AML2?
result: 93.8

query: cell viability of Cc1nc(Nc2ccc(F)cc2)nc(N2CCc3ccccc3C2C)c1C (centres undefined) [Revaprazan Hydrochloride] on OCI-AML2?
result: 75

query: Please tell me: cell viability of `CCn1c(=O)c(-c2ccc(Cl)cc2Cl)cc2cnc(Nc3ccc(N4CCNCC4)c(F)c3)nc21` , system OCI-AML2?
result: 0.95

query: cell viability of `COc1ccc(Oc2cc(C)c(-c3csc(NC(=O)c4ccncc4)n3)c(C)c2)cc1` on OCI-AML2?
result: 47.8

query: Identify the measured cell viability of `Cc1cc(NC(=O)Nc2ccc(N(C)C)cc2)c2cc(F)cc(F)c2n1` for OCI-AML2.
result: 83.8

query: Request body: readout cell viability, system OCI-AML2, query `CN(CCNCc1cn(Cc2ccc(Cl)cc2)nn1)CCNc1ccnc2cc(Cl)ccc12` . Return the value.
result: 0.39

###

Catalogue of compounds with associated cell viability
# System: OCI-AML2
# procedure text: cell viability relative to vehicle control; higher = less cytotoxic
# stated conditions: 10 µM; SRSF2 genotype: P95H/wt
Give just the number in %; leave the unit off.

> print(dat)
                                   compound  system.tested  uom  reported.measurement
1  Cc1cc(C)n(C)n1 [1,3,5-Trimethylpyrazole]       OCI-AML2    %                   104
2  CCOC(=O)C1=C(COCCN)NC(C)=C(C(=O)OC)[C@@H]1c1ccccc1Cl [Levamlodipine]       OCI-AML2    %                  30.2
3  COc1ccccc1-c1cc(Nc2cccc(CS(N)(=O)=O)c2)ncn1       OCI-AML2    %                  18.1
4  Cn1ncc(Cl)c1-c1cc(C(=O)N[C@H](CN)Cc2ccc(F)c(F)c2)oc1Cl       OCI-AML2    %                  51.1
5        Clc1ccc(NN=C(c2ccccc2)c2ccccn2)nc1       OCI-AML2    %                  5.44

query: Give the measured cell viability of `Cc1nn(C)c(COc2ccc(N3CCN(S(=O)(=O)N(C)C)CC3)cc2)c1-c1cccc2c(CCCOc3cccc4ccccc34)c(C(=O)O)n(CCN3CCOCC3)c12` .
result: 103

query: What value of measured cell viability is listed for C1=Cc2ccccc2Nc2ccccc21 [Iminostilbene] ?
result: 106

query: If you can, please state the reported cell viability value of `O=C(Nc1ccc(S(=O)(=O)Nc2ccccc2Cl)c(Cl)c1)c1ccccn1` .
result: 103

query: Field request: cell viability | item: `O=c1cc(-c2cccc3c2Sc2ccccc2S3)oc(N2CCOCC2)c1`
result: 85.7

These entries and their values trace back to the supplement of paper PMC10981050.
